Assignment: determine reported normalized thallium flux for the given compounds.
STUDY SYSTEM: Solute carrier family 12 member 5 (Homo sapiens) (UniProt Q9H2X9)
Sequence (Q9H2X9 whole entry, looked up): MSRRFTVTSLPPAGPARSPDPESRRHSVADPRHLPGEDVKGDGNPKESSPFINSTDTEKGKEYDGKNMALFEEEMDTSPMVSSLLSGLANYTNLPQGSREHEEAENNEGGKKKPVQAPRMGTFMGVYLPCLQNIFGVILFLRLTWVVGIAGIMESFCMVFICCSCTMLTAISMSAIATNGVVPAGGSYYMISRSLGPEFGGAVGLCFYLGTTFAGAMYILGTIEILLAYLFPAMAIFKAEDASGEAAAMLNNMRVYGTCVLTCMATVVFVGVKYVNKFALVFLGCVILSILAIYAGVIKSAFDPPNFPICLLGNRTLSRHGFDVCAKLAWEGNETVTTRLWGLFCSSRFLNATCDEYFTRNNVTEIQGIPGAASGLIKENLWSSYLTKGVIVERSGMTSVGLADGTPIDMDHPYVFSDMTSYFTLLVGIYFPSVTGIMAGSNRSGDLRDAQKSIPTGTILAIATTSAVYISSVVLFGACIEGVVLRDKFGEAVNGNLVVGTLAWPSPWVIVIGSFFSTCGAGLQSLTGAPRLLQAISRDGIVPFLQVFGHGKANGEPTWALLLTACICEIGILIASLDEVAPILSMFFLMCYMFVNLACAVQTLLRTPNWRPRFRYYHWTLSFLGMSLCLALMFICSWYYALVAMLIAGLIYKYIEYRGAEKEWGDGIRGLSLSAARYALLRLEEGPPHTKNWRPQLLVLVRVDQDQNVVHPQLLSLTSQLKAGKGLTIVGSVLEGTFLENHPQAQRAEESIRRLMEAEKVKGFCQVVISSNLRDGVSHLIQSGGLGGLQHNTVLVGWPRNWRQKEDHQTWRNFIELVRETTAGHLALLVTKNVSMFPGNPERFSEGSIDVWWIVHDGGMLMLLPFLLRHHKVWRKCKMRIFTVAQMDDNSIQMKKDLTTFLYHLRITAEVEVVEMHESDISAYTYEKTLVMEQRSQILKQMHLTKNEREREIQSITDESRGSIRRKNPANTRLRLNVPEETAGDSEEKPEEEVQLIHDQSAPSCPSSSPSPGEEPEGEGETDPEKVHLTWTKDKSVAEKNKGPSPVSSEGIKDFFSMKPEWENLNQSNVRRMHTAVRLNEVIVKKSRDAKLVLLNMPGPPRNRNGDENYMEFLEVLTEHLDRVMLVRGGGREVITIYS
ASSAY NOTES: KCC2 modulators without ouabain present, confirmation, cell-based, HEK293 KCC2, thallium flux, FluoZin2, secondary assay 2 (AID 1715);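 further: raw slope with 0.1% DMSO as baseline and bumetanide as block control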
ASSAY SETUP: HEK293-KCC2, thallium flux FluoZin2 fluorescence; at 10 µM; actives lie on both sides; F/F0 rise rate, 10–20 s post-thallium
The list shows a part of the results. Inconclusive results are not listed.
Reply with just the number.

Field: normalized thallium flux (Solute carrier family 12 member 5 (Homo sapiens) (UniProt Q9H2X9)). Entry: COc1cccc2sc(Nc3nc(C)c(C(C)=O)s3)nc12
0.0359

Thanks! And O=C(CSCc1ccccc1)N1CCc2ccccc21 ?
0.027

Thanks! And S=C(NN=C1CCN(Cc2ccccc2)CC1)NC1CCCCC1 ?
0.0249

Thanks! And Oc1c(Cl)cc(Cl)c(Cl)c1Cc1c(O)c(Cl)cc(Cl)c1Cl ?
0.0364

Thanks! And CC1CCCCN1S(=O)(=O)c1ccc(C(=O)Nc2nnc(-c3cccs3)o2)cc1 (stereo not drawn) ?
0.033

Thanks! And O=C(Nc1nnc(-c2ccccc2)o1)c1cc(-c2cccs2)nc2ccccc12 ?
0.0377

Thanks! And CN(C)S(=O)(=O)c1cccc(NC(=S)N/N=C/C(=O)c2ccccc2)c1 ?
0.0323

Thanks! And Cc1ccc(C)c(NC(=S)NNC(=O)c2csc(C)c2)c1 ?
0.034

Thanks! And O=C(Cn1cnc2c(nnn2Cc2ccc(F)cc2)c1=O)NCc1ccc2c(c1)OCO2 ?
0.0238

Thanks! And COc1ccc(CN2CCCCC2C)cc1OC (stereo not drawn) ?
0.0321

Thanks! And NS(=O)(=O)c1ccc(NC(=S)NC(=O)c2cccnc2)cc1 ?
0.0316

Thanks! And O=C(CSc1nnc(-c2cccs2)n1Cc1ccccc1)N1CCc2ccccc2C1 ?
0.0237

Thanks! And O=[N+]([O-])c1ccccc1/C=N/n1c(COc2ccccc2)n[nH]c1=S ?
0.0297

Thanks! And COCCn1c(C)cc(C(=O)CSc2ncnc3sc4c(c23)CCC4)c1C ?
0.0342

Thanks! And O=C(N/N=C/c1coc2ccccc2c1=O)c1cc2ccccc2o1 ?
0.0374

Thanks! And O=[N+]([O-])c1c(NCCO)cc(Sc2nc3ccccc3s2)c2nonc12 ?
0.0332

Thanks! And O=C(NC(=S)N1CCc2ccccc21)c1ccco1 ?
0.0395

Thanks! And COc1ccc(-c2cn(-c3ccc(OC)cc3)c(=S)[nH]2)cc1 ?
0.0299

Thanks! And Cc1ccccc1NC(=S)NNC(=O)c1cccc(Br)c1 ?
0.0325

Thanks! And CCc1ccc2nc3sc(C(=O)Nc4nnc(CC)s4)c(N)c3cc2c1 ?
0.0241

Thanks! And O=C(N/N=C/c1ccc(Br)o1)c1cncc(Br)c1 ?
0.0307

Thanks! And CCOc1ccc(NC(=O)CN(C)CC(=O)Nc2cccc(Cl)c2C)cc1OCC ?
0.0338

Thanks! And Cc1ccccc1N/N=C/c1ccc(N2CCOCC2)cc1 ?
0.0362

###

STUDY SYSTEM: Solute carrier family 12 member 5 (Homo sapiens) (UniProt Q9H2X9)
ASSAY NOTES: KCC2 modulators without ouabain present, confirmation, cell-based, HEK293 KCC2, thallium flux, FluoZin2, secondary assay 2 (AID 1715);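 further: raw slope with 0.1% DMSO as baseline and bumetanide as block control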
ASSAY SETUP: HEK293-KCC2, thallium flux FluoZin2 fluorescence; at 10 µM; actives lie on both sides; F/F0 rise rate, 10–20 s post-thallium
The list shows a part of the results. Results filed as inconclusive are left out. Calls of active or inactive are those of the source.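 Rule for the calls: active = thallium flux slope more than 3 SD above or below the plate's solvent-only control mean, mostly below; inconclusive = the two repeat wells disagreed; inactive = no significant shift from solvent-only controls.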
Can you answer with just one of these options? t (active), f (inactive)

Assay result, entry CCOC(=O)CSc1nnc(CNC(=O)c2cccs2)n1-c1ccccc1 — outcome?
f

Thanks! And CCOC(=O)c1c(C)[nH]c(C)c1C(=O)CSc1nc(N)cc(N)n1 ?
f

Thanks! And Cc1cccc(NC(=S)NC(=O)c2ccc(Br)o2)c1 ?
t

Thanks! And O=C(CNCc1cccs1)Nc1cc(S(=O)(=O)N2CCCC2)ccc1Cl ?
t

Thanks! And Cc1ccc(/C=N/NC(=S)NC2CCCCC2)o1 ?
f

Thanks! And CS(=O)(=O)c1sc(C(=O)NC(=S)Nc2ccc(OC(F)(F)F)cc2)c2c1C=CCC2 ?
f

Thanks! And O=C(Cc1csc(Nc2nc(=S)[nH]c3ccccc23)n1)NCCCN1CCN(c2cccc(Cl)c2)CC1 ?
f

Thanks! And CCn1c(SCc2ccccc2)nc2c(c1=O)SCC2 ?
f

Thanks! And Cc1c(NC(=O)CSc2cccc3cccnc23)c(=O)n(-c2ccccc2)n1C ?
f

Thanks! And COc1cccc(-c2nnc(NC(=O)c3ccc(S(=O)(=O)N(CC(C)C)CC(C)C)cc3)o2)c1 ?
f

Thanks! And COc1ccc(C(=O)NC(=S)NNC(=O)c2c(-c3ccccc3)noc2C)cc1 ?
t

Thanks! And O=c1[nH]c2ccccc2s1 ?
f

Thanks! And O=C(O)CCN(Cc1ccccc1)S(=O)(=O)c1c(Cl)cccc1Cl ?
t

Thanks! And CCC(CC)NC(=O)CSc1nnc(-c2c[nH]c3ccccc23)o1 ?
t

Thanks! And Cc1ccc(/C=N/NC(=S)Nc2cccc(S(=O)(=O)N(C)C)c2)o1 ?
f

Thanks! And C=CCn1c(=S)[nH]c2nc3c(cc2c1=O)COC(C)(C)C3 ?
f

Thanks! And Cc1nnc(SC(C(=O)Nc2cc(Cl)cc(Cl)c2)c2ccccc2)[nH]c1=O (configuration not stated) ?
f

Thanks! And Cc1ccc(OCC(=O)N2CCN(C(=O)c3cccnc3)CC2)cc1 ?
f

Thanks! And CC(C)C1Nc2c(C(=O)O)cccc2C(Nc2ccccc2C(=O)O)C1(C)C (configuration not stated) ?
t

Thanks! And O=C(Cn1c(-c2ccc(Cl)cc2)noc1=O)N1CCN(c2ccccc2F)CC1 ?
t

Thanks! And CC[C@@H](C)[C@@H](C(=O)N1CCN(C(=O)OC(C)(C)C)CC1)n1cc(CCC(=O)O)nn1 ?
f

Thanks! And Cc1[nH]n(-c2ccccc2)c(=O)c1N=Nc1ccccc1C(=O)N1CCCCC1 ?
f

Thanks! And O=c1c2ccccc2[nH]c(=S)n1CCN1CCC(=C(c2ccc(F)cc2)c2ccc(F)cc2)CC1 ?
f

Thanks! And C/C(=N\NC(=S)NC1CCCCC1)c1ccc(C)o1 ?
f

Thanks! And O=C(C1CCN(c2nnc(-n3cccc3)s2)CC1)N1CCc2ccccc2C1 ?
t

Thanks! And O=C(Nc1nc2c(F)cc(F)cc2s1)C1COc2ccccc2O1 (configuration not stated) ?
f

Thanks! And c1cncc(-c2nnc3n2C2(CCCCC2)Cc2ccccc2-3)c1 ?
f

Thanks! And O=C(Oc1c(-c2ccco2)oc2ccccc2c1=O)c1cccnc1 ?
f

Thanks! And Cc1oc(C(N)=O)cc1COc1ccc(C(N)=O)cc1 ?
f

Thanks! And Cc1cccc(NS(=O)(=O)c2ccc(C)c(C(N)=O)c2)c1 ?
f

Thanks! And S=c1nccc(-c2cc(Cl)sc2Cl)[nH]1 ?
f

Thanks! And CCOc1ccc(C(=O)NCCCN2CCCC2=O)cc1 ?
f

Thanks! And O=C(COC(=O)c1ccc(Oc2ccccc2)cc1)Nc1nnc(-c2ccccc2)o1 ?
t

Thanks! And CCOc1ccccc1C1CC(c2ccc(Cl)cc2)Nc2nc(N)nn21 (configuration not stated) ?
f

Thanks! And C/C(=N\NC(=S)Nc1ccc(C)cc1)c1cc2ccccc2o1 ?
t

Thanks! And COC(=O)c1cccnc1NC(=S)NC(C)C ?
f

Thanks! And CCNCc1cc2cc(C)ccc2[nH]c1=O ?
f

Thanks! And COCCNc1nc(-n2nc(C)cc2C)nc2sc3c(c12)CCCC3 ?
f

Thanks! And CNC(=O)/C(=C\C=C\c1ccccc1)NC(=O)c1ccc([N+](=O)[O-])cc1 ?
t

Thanks! And CC(C)CNC(=S)NC(=O)c1ccc(Cl)cc1 ?
t

Thanks! And N#Cc1c(-c2ccc(Cl)cc2)c2c([nH]c1=S)CCCC2 ?
t

Thanks! And COc1ccc(NC(=O)N2CCC(Cc3ccccc3)CC2)cc1 ?
f

Thanks! And COc1ccc(C(=O)NC2(C(F)(F)F)NC(=O)N(CCCc3ccccc3)C2=O)c(OC)c1OC (configuration not stated) ?
f

Thanks! And Cc1ccc(N=Cc2c(O)n(-c3nccs3)c(=O)c3ccccc23)c(C)c1 ?
t

Thanks! And CC1CC(C)(C)n2c(O)c(N=NC(N)=S)c3cccc1c32 (configuration not stated) ?
f

Thanks! And O=C(Nc1nnc(C2COc3ccccc3O2)o1)c1ccc(F)cc1 (configuration not stated) ?
f

Thanks! And COc1ccccc1-n1cnc2cc(NS(=O)(=O)c3ccccc3)ccc21 ?
t

Origin of values: PubChem BioAssay
